Can you tell me IC50 for the items I'm about to list?
- TARGET UNDER TEST: GSK-3αβ
- EXPERIMENT DESCRIPTION: GSK-3αβ kinase inhibition (GS-1 substrate, buffer A)
- MEASUREMENT PARAMETERS: 15 μM ATP, 30° C., native, pig brain; read-out: IC50 Kinases GSK3

// query Fill in IC50 for record Cc1csc(Nc2cnc3cnc(-c4ccc(O)cc4)nc3c2)n1
// result > 10 µM

// query Identify measured IC50 associated with Cc1ncccc1Nc1cnc2cnc(-c3ccc(O)cc3)nc2c1
// result > 10 µM

// query # return recorded IC50 for input Oc1ccc(Nc2ncc3ncc(-c4ccc(O)cc4)cc3n2)cc1
// result 7.1 µM

// query Query IC50 for Oc1ccc(-c2ncc3ncc(-c4ccncc4)cc3n2)cc1
// result > 10 µM

// query Given the compound CC(=O)c1ccc(Nc2cnc3c(NCc4ccccc4)nc(NCCO)nc3c2)cc1 , write its reported IC50.
// result > 10 µM

// query Note IC50 for the compound shown: Oc1ccc(-c2ncc3ncc(Nc4ncccn4)cc3n2)cc1
// result > 10 µM

// query Supply measured IC50 of Oc1ccc(-c2ncc3ncc(-c4ccc(C(F)(F)F)cc4)cc3n2)cc1 in your reply.
// result ≥ 100 µM

// query Tell me IC50 reported for Oc1ccc(-c2ncc3ncc(Cl)cc3n2)cc1
// result > 100 µM

// query Provide one value: measured IC50 of Oc1ccc(Nc2ncc3ncc(-c4cccc(O)c4)cc3n2)cc1
// result 4.5 µM

// query Specify IC50 for Oc1ccc(-c2ncc3ncc(Nc4nc5ccccc5s4)cc3n2)cc1 and stop.
// result > 10 µM

// query Given COc1ccc(-c2cnc3cnc(-c4ccc(O)cc4)nc3c2)cn1 , respond with its IC50.
// result > 10 µM

// query Please look at this compound and report its IC50: Oc1ccc(-c2ncc3ncc(-c4ccccc4O)cc3n2)cc1
// result ≥ 100 µM

// query Please give measured IC50 of the following entry: Oc1ccc(Nc2ncc3ncc(-c4ccccc4O)cc3n2)cc1
// result > 10 µM

// query State its IC50: Oc1ccc(-c2ncc3ncc(Nc4ccon4)cc3n2)cc1
// result > 10 µM

// query Output measured IC50 for this item: Oc1ccccc1-c1cnc2cnc(-c3ccccc3O)nc2c1
// result > 10 µM

// query # return recorded IC50 for entry Oc1ccc(Nc2ncc3ncc(Cl)cc3n2)cc1
// result > 10 µM

// query Give a short answer stating reported IC50 for Oc1cccc(-c2cnc3cnc(-c4cccc(O)c4)nc3c2)c1 .
// result > 100 µM

// query Return IC50 for the following compound: Oc1ccc(-c2ncc3ncc(-c4cccs4)cc3n2)cc1
// result > 10 µM

// query Consider the compound Oc1ccc(-c2cnc3cnc(-c4ccc(O)cc4)nc3c2)cc1 and give its recorded IC50.
// result 26 µM

// query Supply reported IC50 belonging to this compound: CS(=O)(=O)c1ccc(-c2cnc3cnc(-c4ccc(O)cc4)nc3c2)cc1
// result > 100 µM

* * *

I'd appreciate it if you could supply pIC50 values for the items below.
- Test system: HCT 116
- EXPERIMENT DESCRIPTION: Cytotoxicity on human cells, HCT 116 (colon)
- Assay type: cell-based
- MEASUREMENT PARAMETERS: exposed 24 h and 48 h, 0.1 to 25 μM
In simple prose, pIC50 is minus the logarithm base ten of a concentration in moles per litre.

// query Please indicate recorded pIC50 of OCCNc1nc(NCc2ccccc2)c2ncc(Nc3ncccn3)cc2n1 measured with HCT 116.
// result 5.22

// query Give pIC50 for this entry on HCT 116: Oc1ccc(-c2ncc3ncc(-c4ccncc4)cc3n2)cc1
// result 5.00

// query Provide the reported pIC50 (system: HCT 116) for OCCNc1nc(NCc2ccccc2)c2ncc(Nc3cnc4ccccc4c3)cc2n1
// result 6.30

// query Answer with pIC50 of Oc1ccc(-c2ncc3ncc(-c4ccccc4O)cc3n2)cc1 measured for HCT 116.
// result 4.70

// query Param request: pIC50 | system HCT 116 | item Oc1ccc(Nc2ncc3ncc(Cl)cc3n2)cc1
// result 5.70

// query For HCT 116, give the measured pIC50 of the entry COc1cccc(Nc2cnc3c(NCc4ccccc4)nc(NCCO)nc3c2)c1
// result 5.30

// query GET pIC50 where system = HCT 116 and item = Oc1ccc(-c2cnc3cnc(-c4ccc(O)cc4)nc3c2)cc1
// result 4.92

// query Report pIC50 under test system HCT 116 for COc1ccc(Nc2cnc3c(NCc4ccccc4)nc(NCCO)nc3c2)cc1OC .
// result 5.40

// query State pIC50 (HCT 116) of COc1ccc(Nc2cnc3c(NCc4ccccc4)nc(NCCO)nc3c2)cc1 .
// result 5.30

// query Provide measured pIC50 on HCT 116 for Oc1ccc(-c2ncc3ncc(-c4ccoc4)cc3n2)cc1 please.
// result 5.00

// query Print HCT 116 pIC50 for OCCNc1nc(NCc2ccccc2)c2ncc(Nc3ccc4ncccc4c3)cc2n1 .
// result 5.92

// query Write down measured pIC50 (HCT 116) for this compound. Oc1ccc(-c2ncc3ncc(Nc4ccon4)cc3n2)cc1
// result 5.05

// query Give measured pIC50 for Oc1ccc(-c2ncc3ncc(-c4ccco4)cc3n2)cc1 (HCT 116).
// result 5.30

// query Please report the measured pIC50 for Oc1ccc(-c2ncc3ncc(Nc4ncccn4)cc3n2)cc1 tested on HCT 116.
// result 5.70

// query Retrieve pIC50 on HCT 116; query Oc1ccc(-c2ncc3ncc(-c4cccs4)cc3n2)cc1
// result 5.40

// query State recorded pIC50 with HCT 116, entry Oc1ccc(Nc2ncc3ncc(-c4cccc(O)c4)cc3n2)cc1 , no comment.
// result 4.92

// query Tell me pIC50 of Oc1ccc(Nc2ncc3ncc(-c4ccc(O)cc4)cc3n2)cc1 when tested on HCT 116.
// result 4.92

// query Report its pIC50 with HCT 116 as the test system: Oc1ccc(-c2ncc3ncc(-c4ccsc4)cc3n2)cc1
// result 4.82

// query Give HCT 116 pIC50 for the following compound: CC(=O)c1ccc(Nc2cnc3c(NCc4ccccc4)nc(NCCO)nc3c2)cc1
// result 6.00

// query Print HCT 116 pIC50 for COc1ccc(Nc2cnc3cnc(-c4ccc(O)cc4)nc3c2)cc1 .
// result 4.82

// query Give the observed pIC50 of Oc1ccc(-c2ncc3ncc(-c4cccc(O)c4)cc3n2)cc1 for HCT 116.
// result 5.15

// query Recall the reported pIC50 of Oc1ccc(Nc2ncc3ncc(-c4ccccc4O)cc3n2)cc1 when tested on HCT 116.
// result 5.10

* * *

I'd be grateful if you could share measured melting point for these entries.

// query For the compound OCCNc1nc(NCc2ccccc2)c2ncc(Nc3ncncn3)cc2n1 , report melting point.
// result 202 to 203 °C

// query Please look at this compound and report its melting point: Oc1ccc(-c2ncc3ncc(-c4ccc(S)cc4)cc3n2)cc1
// result 222 to 223 °C

// query Give the measured melting point for OCCNc1nc(NCc2ccccc2)c2ncc(Nc3cnc4ccccc4c3)cc2n1
// result 154 to 155 °C

// query Tell us which melting point value is on record for Oc1ccc(-c2ncc3ncc(Nc4ncccn4)cc3n2)cc1
// result > 268 °C

// query Answer with the recorded melting point for the compound listed here: Oc1ccc(-c2ncc3ncc(-c4ccc(C(F)(F)F)cc4)cc3n2)cc1
// result 203 to 204 °C

* * *

- System: PC3
- EXPERIMENT DESCRIPTION: Cytotoxicity on human cells, PC3 (prostate)
- Type: cell-based
- MEASUREMENT PARAMETERS: PC-3, human cells, exposed 24 h and 48 h, 0.1 to 25 μM
VALUE TYPE: IC50

// query Output IC50 of OCCNc1nc(NCc2ccccc2)c2ncc(Nc3cnc4ccccc4c3)cc2n1 [Compound 89]
// result 3 µM

// query Please list IC50 recorded for the compound Oc1ccc(-c2ncc3ncc(-c4cccs4)cc3n2)cc1 [Compound 38]
// result 25 µM

// query State its IC50: Oc1ccc(-c2ncc3ncc(-c4ccncc4)cc3n2)cc1 [Compound 34]
// result > 25 µM

// query Name the recorded IC50 of the compound listed here: COc1ccc(-c2cnc3cnc(-c4ccc(O)cc4)nc3c2)cn1 [Compound 32]
// result > 25 µM

// query Output IC50 of OCCNc1nc(NCc2ccccc2)c2ncc(Nc3ccc4ncccc4c3)cc2n1 [Compound 90]
// result 5 µM

* * *

For each entry below, report its IC50 value.
- TARGET UNDER TEST: GSK-3αβ
- EXPERIMENT DESCRIPTION: GSK-3αβ kinase inhibition (GS-1 substrate, buffer A)
- MEASUREMENT PARAMETERS: 15 μM ATP, 30° C., native, pig brain; read-out: IC50 Kinases GSK3

// query Return value of IC50 for input COc1ccc(Nc2cnc3c(NCc4ccccc4)nc(NCCO)nc3c2)cc1OC [Compound 85] , no commentary.
// result > 10 µM

// query Please give the documented IC50 of COc1ccc(Nc2cnc3cnc(-c4ccc(O)cc4)nc3c2)cc1 [Compound 51]
// result 7.3 µM

// query Query IC50 for Oc1ccc(-c2ncc3ncc(-c4cccnc4)cc3n2)cc1 [Compound 33]
// result > 10 µM

// query Give IC50 for Oc1ccc(-c2ncc3ncc(-c4ccsc4)cc3n2)cc1 [Compound 37]
// result > 10 µM

// query # return recorded IC50 for input Oc1ccc(-c2ncc3ncc(-c4cccc(O)c4)cc3n2)cc1 [Compound 23]
// result > 100 µM

// query Give me measured IC50, please, for this compound: Oc1ccc(-c2ncc3ncc(-c4ccco4)cc3n2)cc1 [Compound 35]
// result > 10 µM

// query Kindly indicate its recorded IC50. Item: N#Cc1ccc(Nc2cnc3cnc(-c4ccc(O)cc4)nc3c2)nc1 [Compound 54]
// result 5.5 µM

Numbers sourced from patent US20130109693A1.
